- PROCEDURE_TEXT: yeast growth toxicity, wild-type and mutant, primary screen, cytotoxicity control for eIF2B function restoration project, wild-type and eIF2Bepsilon R284H mutant, A595 (AID 685)
- CONDITION_SET: S. cerevisiae wild-type growth, A595 turbidity, 16 h; active compounds read high; screened at 25 µM (by protocol)
Among all 30,000 compounds or so, about 80 (0.3%) were called active. The sample as a whole holds a higher share of actives than the screen did.
Given measured growth inhibition, output True if it is greater than or equal to 20% and False if not.

Task: growth inhibition >= 20% for O=C(N/N=C/c1ccc(O)cc1)/C(=C/c1ccc([N+](=O)[O-])cc1)NC(=O)c1ccccc1 ?
Output: False

Task: growth inhibition >= 20% for Cc1nnc(SCC(=O)Nc2ncc3c(n2)CC(C)(C)CC3=O)s1 ?
Output: True

Task: growth inhibition >= 20% for CCSc1ccccc1C(=O)NCc1ccc(OC)cc1 ?
Output: False

Task: growth inhibition >= 20% for Cc1ccc(-c2cc(C(=O)NCC3CCCO3)c3ccccc3n2)o1 (stereo not drawn) ?
Output: False

Task: growth inhibition >= 20% for Cc1ccc(N(CC(=O)Nc2cccc(N(C)S(C)(=O)=O)c2)S(C)(=O)=O)cc1 ?
Output: False

Task: growth inhibition >= 20% for OC(c1ccccc1)c1nccn1Cc1ccccc1 (stereo not drawn) ?
Output: True

Task: growth inhibition >= 20% for CC(C)(C)n1nnnc1C(c1ccc(F)cc1)N1CCN(Cc2ccc3c(c2)OCO3)CC1 (stereo not drawn) ?
Output: False

Task: growth inhibition >= 20% for CC(Oc1ccc(Cl)cc1)c1ccnn1S(C)(=O)=O (stereo not drawn) ?
Output: True
